- System: SNB-75 CNS
- assay-text: NCI tumour cell line growth inhibition, 48 h
readout-type: TGI (µM)
Reply with just the number (in µM).

Q) For the compound shown here, "C/C(=C\CO)CC/C=C(\C)CNc1ccccc1" , give the reported TGI.
A) 54.6

Q) For the compound shown here, COC12COC(=O)C1C(c1ccc3c(c1)OCO3)c1cc3c(cc1O2)OCO3 (stereo not given) , give the reported TGI.
A) 59.2

* * *

- System: NCI-H23 lung
- assay-text: NCI tumour cell line growth inhibition, 48 h
What TGI was measured for each of the following?

Q) For the compound shown here, CC(=O)Oc1ccc(/C=C/C(=O)NCC(NC(=O)/C=C/c2ccc(OC(C)=O)c(OC(C)=O)c2)C(=O)O)cc1OC(C)=O (stereo not drawn) , give the reported TGI.
A) > 100 µM

Q) For the compound shown here, "O/N=C(\C(=N/O)Nc1ccc(-c2ccc(NC(=N/O)/C(=N\O)c3ccccc3)cc2)cc1)c1ccccc1" , give the reported TGI.
A) 32.1 µM

Q) For the compound shown here, "CC(=O)O[C@H]1C(=O)[C@@]2(C)[C@H]([C@H](OC(=O)c3ccccc3)[C@]3(O)C[C@H](OC(=O)[C@H](OC(=O)OC[C@@H]4COC(C)(C)O4)[C@@H](NC(=O)c4ccccc4)c4ccccc4)C(C)=C1C3(C)C)[C@]1(OC(C)=O)CO[C@@H]1C[C@@H]2O" , give the reported TGI.
A) > 33.3 µM

* * *

- System: 786-0 renal
- assay-text: NCI tumour cell line growth inhibition, 48 h
Where a SMILES comes first, the peptide text is derived from it. [ ]: non-standard residue; d: D form. The star is where a group is joined. Nle = CCCC[C@H](N)C(=O)O; Cbz = O=C(OCc1ccccc1)*
readout-type: TGI (µM)
Reply with just the number (in µM).

Q) For the compound shown here, COc1ccc(/C=C2/SC(c3ccccc3)N(NC(=O)CCCCCCCCC(=O)NN3C(=O)/C(=C\c4ccc(OC)c(OC)c4)SC3c3ccccc3)C2=O)cc1OC (centres undefined) , give the reported TGI.
A) 91.3

Q) For the compound shown here, "CC/C(=C(\c1ccc(Cl)cc1)c1ccc(OCCN2CCCCC2)cc1)c1ccc(O)cc1" , give the reported TGI.
A) 3.43

Q) For the compound shown here, "COC(=O)c1c(O)c2c(c3c1OC(C)(C)CC3)OC(C)(C)CC2" , give the reported TGI.
A) 31.1

Q) For the compound shown here, CCCC[C@@H](C=O)NC(=O)[C@H](CC(C)C)NC(=O)[C@H](CC(C)C)NC(=O)OCc1ccccc1 (Cbz-Leu-Leu-[Nle]-aldehyde) , give the reported TGI.
A) 1.41

Q) For the compound shown here, CC1(C)C2CCC1(C)[C@H](O)[C@H]2Nc1cc(C(F)(F)F)cc(C(F)(F)F)c1 (some centres undefined) , give the reported TGI.
A) 12.2

Q) For the compound shown here, "C[C@]12CC[C@@H]3c4ccc(O)cc4CC[C@H]3[C@@H]1CC[C@@H]2NS(=O)(=O)c1cccc(OC(F)(F)F)c1" , give the reported TGI.
A) 3.93

Q) For the compound shown here, "COC(=O)C(=Cc1ccccc1[N+](=O)[O-])C(=O)OC" , give the reported TGI.
A) 14.2

Q) For the compound shown here, C[C@]12CCC3[C@@H](CC[C@@H]4c5nonc5CC[C@]34C)C1CCC2=O (some centres undefined) , give the reported TGI.
A) 64.3

Q) For the compound shown here, "CCc1nc(N)nc(N)c1-c1ccc2c(c1)nnn2CCc1ccccc1" , give the reported TGI.
A) 64.4
